This collection of values is drawn from PubChem BioAssay AID778.

assayedTarget: Cytochrome P450 2C19 (Homo sapiens) (UniProt P33261)
Sequence (P33261 whole entry, looked up): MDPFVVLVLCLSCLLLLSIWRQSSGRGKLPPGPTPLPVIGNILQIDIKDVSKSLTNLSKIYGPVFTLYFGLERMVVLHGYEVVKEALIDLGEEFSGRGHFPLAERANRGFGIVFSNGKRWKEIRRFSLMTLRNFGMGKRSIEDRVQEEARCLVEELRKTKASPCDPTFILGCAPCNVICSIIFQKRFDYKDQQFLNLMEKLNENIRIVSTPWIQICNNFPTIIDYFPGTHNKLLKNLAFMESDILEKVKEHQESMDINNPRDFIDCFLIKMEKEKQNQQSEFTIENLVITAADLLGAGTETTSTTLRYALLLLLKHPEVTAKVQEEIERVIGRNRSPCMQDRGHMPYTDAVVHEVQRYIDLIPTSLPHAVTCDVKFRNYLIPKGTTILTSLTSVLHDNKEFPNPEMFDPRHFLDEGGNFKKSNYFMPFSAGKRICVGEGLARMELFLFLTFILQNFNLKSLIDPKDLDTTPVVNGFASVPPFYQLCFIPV
experiment: blockers of cytochrome P450 2C19 activity – biochemical, luminescence, ADME assay, primary screen (AID 778)
conditionNotes: CYP2C19 Supersomes, luciferin-H EGE luminescence, 30 min; at 5 µM
Screen size: about 96,000 compounds; about 20,000 (21%) were called active.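 How the source made its calls: active means CYP2C19 inhibition above a set limit at 5 µM in the primary screen (cut at about 50% in these data); inactive means the rest.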 The list is a sample of the results.
The reply should name one outcome from active, inactive

Look up the recorded call for CC(=O)N1CCc2cc(S(=O)(=O)Nc3ccccc3N3CCN(C)CC3)ccc21 in this test.
inactive

Look up the recorded call for Cc1c(C(=O)N2CCOCC2)[nH]c2ccc(OCc3ccccc3)cc12 in this test.
inactive

Look up the recorded call for Cc1c(C(=O)CN2CCOCC2)[nH]c2ccccc12 in this test.
active

Look up the recorded call for CSCCC(NC(N)=O)C(=O)N(C)CC(=O)Nc1ccc(C)cc1 (stereo unspecified) in this test.
inactive

Look up the recorded call for CCOC(=O)N1CCN(CC(=O)c2c(C)[nH]c3ccccc23)CC1 in this test.
active

Look up the recorded call for CC1CCN(CC(=O)c2c[nH]c3ccccc23)CC1 in this test.
inactive
